# Tested on: Streptococcus pneumoniae
# Assay text: Antimicrobial activity against Streptococcus pneumoniae serotype 3 by broth microdilution method
# Type: functional
Parameter: MIC90. Scope: all listed entries.

Smiles code	MIC90
CCC[C@@H]1C[C@@H](C(=O)N[C@@H]([C@H]2O[C@H](SC)[C@H](O)[C@@H](O)[C@H]2O)[C@H](C)Cl)N(C)C1	≤ 0.25 µg/mL
CN[C@H](CC(C)C)C(=O)N[C@H]1C(=O)N[C@@H](CC(N)=O)C(=O)N[C@H]2C(=O)N[C@H]3C(=O)N[C@H](C(=O)N[C@H](C(=O)O)c4cc(O)cc(O)c4-c4cc3ccc4O)[C@H](O)c3ccc(c(Cl)c3)Oc3cc2cc(c3O[C@@H]2O[C@H](CO)[C@@H](O)[C@H](O)[C@H]2O[C@H]2C[C@](C)(N)[C@H](O)[C@H](C)O2)Oc2ccc(cc2Cl)[C@H]1O	≤ 1 µg/mL
CC1(C)S[C@@H]2[C@H](NC(=O)COc3ccccc3)C(=O)N2[C@H]1C(=O)O	≤ 0.03 µg/mL
